- Study System: Steroidogenic factor 1 (Homo sapiens) (UniProt Q13285)
- Sequence (Q13285 whole entry, looked up, the tested form may be a part): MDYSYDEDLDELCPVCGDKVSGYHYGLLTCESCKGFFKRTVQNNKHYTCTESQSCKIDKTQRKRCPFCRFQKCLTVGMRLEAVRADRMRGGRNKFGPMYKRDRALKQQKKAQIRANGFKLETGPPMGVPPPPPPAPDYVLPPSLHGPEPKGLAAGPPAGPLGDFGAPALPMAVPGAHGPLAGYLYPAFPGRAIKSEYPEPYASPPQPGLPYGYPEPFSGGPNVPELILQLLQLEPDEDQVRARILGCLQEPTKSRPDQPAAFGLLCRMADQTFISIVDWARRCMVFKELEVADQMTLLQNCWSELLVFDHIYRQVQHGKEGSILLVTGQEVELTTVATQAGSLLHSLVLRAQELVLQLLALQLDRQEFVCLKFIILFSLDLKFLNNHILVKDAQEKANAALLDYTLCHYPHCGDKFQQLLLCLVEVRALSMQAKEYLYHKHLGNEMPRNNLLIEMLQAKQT
- Measurement Description: inhibitors of human SF-1, primary screen, cell-based, CHO-K1, Gal4-SF-1 LBD, luciferase luminescence (AID 525);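 further: 0% = SF-1 transfected cells with DMSO and 100% = mock-transfected cells lacking SF-1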
- Conditions Used: CHO-K1 Gal4-SF-1 LBD luciferase reporter; at 10 µM; hits give high values
About 360 (0.55%) of roughly 65,000 compounds were called active. The sample holds actives, similar compounds and a random draw of the others, so the mix is not that of the screen.
Reported Endpoint: inhibition (%)
Could you give me the number in %? Just the number is fine.

If you can, please state the reported inhibition value of CC(=O)c1c(N2CCOCC2)nc(=S)n(-c2cc(C)ccc2C)c1C .
-0.4

For CN(C)c1ccc(CNC23CN4CN(CN(C4)C2)C3)cc1 , what is its reported inhibition?
14.1

What measured inhibition goes with c1ccc(CSc2nnc(-c3ccco3)n2Cc2ccccc2)cc1 ?
-76

Any idea what inhibition was measured for CC[C@]1(O)C[C@@H]2CN(CCc3c([nH]c4ccccc34)[C@@](C(=O)OC)(c3cc4c(cc3OC)N(C)[C@H]3[C@@](O)(C(=O)OC)[C@H](OC(C)=O)[C@]5(CC)C=CCN6CC[C@]43[C@@H]65)C2)C1 ?
73.1

Report inhibition for COCc1[nH]nc2c1C(C1C=CCCC1)C(C#N)=C(N)O2 (configuration not stated) please.
-8

Which inhibition is listed for CCC(=O)N1CCN=C1SCc1ccc(F)cc1 ?
-14.3

Requested field: inhibition. Item: Cc1cccc(-c2noc(-c3ccc(F)cc3)n2)c1
-77.6

What does the record list as inhibition for COc1ccc(-c2cc(C(=O)NC(C(=O)O)C(C)C)c(C)o2)cc1OC (configuration not stated) ?
-56.5

Quick one: inhibition for O=C(COc1ncnc2ccccc12)NC(=O)NCc1ccccc1 ?
2.4

What value of measured inhibition is listed for CCCOc1ccc(/C(O)=C2/C(=O)C(=O)N(CCN(C)C)C2c2ccc(OC)c(OC)c2)cc1 (configuration not stated) ?
-2.4

Which inhibition value is on record for O=C(OCC(=O)c1cccs1)C1=COCCO1 ?
-24.5

Name the reported inhibition value associated with the compound Nc1ccc(-c2nnc(-c3ccc(-c4ccccc4)cc3)o2)cc1
-55.2

# lookup: inhibition of Cn1c(=O)c2c(nc(SCC(=O)Nc3ccccc3N3CCCCC3)n2C)n(C)c1=O
-2.8

Query: inhibition; subject: O=C(Oc1ccc(-c2nc(-c3ccccn3)no2)cc1)c1ccccc1
49.6

Which inhibition is listed for c1c2c(cc3sc(N4CCCCC4)nc13)OCCO2 ?
71.4

Query (compound): COc1ccc(OCc2ccc(-c3nc4ccccc4c(=O)n3N)o2)cc1 ; field requested: inhibition
-59
